procedureText: qHTS RealTime-Glo MT Cell Viability Assay in HEK293 cells - 32 hour (AID 1224868); note: nearly all actives have a fitted effect of over 50% in size
protocolConditions: RealTime-Glo luminescence; series mostly up to 76.8 µM
Results filed as inconclusive are left out. Active and inactive are the calls of the source. Calls come from the whole dose curve; as a rule, active = well fitted cell-killing curve with a large enough effect in the repeat runs; inconclusive = weak or mixed curves, or effect the other way; inactive = flat fitted curve, though single readings scatter.
Classes used: 1 for active, 0 for inactive

> print(dat)
                                    molecule  group
 1                    ON(Cc1ccccc1)Cc1ccccc1      0
 2                 O=C(O)c1ccccc1NCCc1ccccc1      0
 3  CC(CCc1ccc2c(c1)OCO2)NN (stereo unspecified)      0
 4                    CCCCC/C(=C\c1ccccc1)CO      0
 5                     COC(=O)CC(=O)C(C)(C)C      0
 6           CC1=NN(c2ccc(C(=O)O)cc2)C(=O)C1      0
 7  Cc1ccccc1N1C(=O)c2cc(S(N)(=O)=O)c(Cl)cc2NC1C (stereo unspecified)      0
 8        Cc1cc2nc3ccc(=[N+](C)C)cc-3sc2cc1N      1
 9                     CCCCCCCCCCOS(=O)(=O)O      0
10       CC1(C)C2=CCCC(C)(C)[C@]23CC[C@H]1C3      0
11  CC[C@@H]([C@H](C)O)n1ncn(-c2ccc(N3CCN(c4ccc(OC[C@@H]5CO[C@@](Cn6cncn6)(c6ccc(F)cc6F)C5)cc4)CC3)cc2)c1=O      1
12  CCN(Cc1cccc(S(=O)(=O)O)c1)c1ccc(C(=C2C=CC(=[N+](CC)Cc3cccc(S(=O)(=O)[O-])c3)C=C2)c2ccccc2)cc1      0
13         CC(C)OCC1CO1 (stereo unspecified)      0
14             O=S(=O)(c1ccccc1)c1ccc(Cl)cc1      0
15                       O=C(O)c1snc(Cl)c1Cl      0
16                 CC1(C)C(=O)N(Br)C(=O)N1Cl      0
17                      Oc1ccc(Nc2ccccc2)cc1      1
18  CC(C)c1nnc2ccc(-c3ocnc3-c3cc(F)ccc3F)cn12      1
19  CC(=O)Oc1ccc2c(c1)CC[C@@H]1[C@@H]2CC[C@]2(C)[C@@H](O)CC[C@@H]12      1
20  CCOC(=O)[C@@H](C)Oc1ccc(Oc2nc3ccc(Cl)cc3o2)cc1      1
21                               CCOC(=O)OCC      0
22  CC1=CC(=O)CC(C)(C)C1(O)/C=C/C(C)=C\C(=O)O (stereo unspecified)      0
23  CCC(C)(C)C1CCC(O)CC1 (stereo unspecified)      0
24           CCCCN(CCCC)CCCOC(=O)c1ccc(N)cc1      0
25                   Fc1c(F)c(F)c(Br)c(F)c1F      0
26      C[Si](NC1CCCCC1)(NC1CCCCC1)NC1CCCCC1      0

Each recorded value in this set is attributed to PubChem BioAssay (Tox21).
